Reported fold over parental (CHO WT) is given for each of the following binders.
measured-on: T1, Full length Mouse TfR on CHO cells (mouse, UniProt Q62351 1-763)
T1 construct: also called CHO + muTfR
test-description: FACS MFI, supernatant

binder: TfR17 (mouse hybridoma antibody) (antibody, V domains shown, mouse IgG in hybridoma supernatant) VH: DVQLQESGPGLVKPSQSLSLTCTVTGYSITSDYAWNWIRQFPGNKLEWMGYISYSGSTSYNPSLKSRISITRDTSKNQFFLQLNSVTTEDTATYYCASWGYRYLEDYWGQGTSVTVSS VL: QIVLTQSPAIMSASPGEKVTMTCSASSSISSMHWYQQKPGTSPKRWISDTSKLASGIPARFSGSGSGTSYSLTISSMAAEDAAAYYCHQRSSYPWTFGGGTKLEIK
fold over parental (CHO WT) (fold): 1

binder: TfR27 (mouse hybridoma antibody) (antibody, V domains shown, mouse IgG in hybridoma supernatant) VH: QVQLQQPGSELVRPGASVKLSCKASGYTFTSYWMHWVKQRPGQGLEWIGNIYPGTGSTNYDEKFKSKATLTVDTSSSTAYMQLSSLTSEDSAVYYCTRSSYYGNFDTMDYWGQGTSVTVSS VL: QIFLTQSPAIMSASPGERVTMTCSASSSIRYMNWYQQKPGTSPKRWIYDTSELASGVPARFTGSGSGTSYSLTISSMEAEDAATYYCHQRSGYPWTFGGGTKLEIK
fold over parental (CHO WT) (fold): 1

binder: TfR18 (mouse hybridoma antibody) (antibody, V domains shown, mouse IgG in hybridoma supernatant) VH: QVQLQQSGAELVRPGTSVKVSCKASGYAFTNYLIEWIKQRPGQGLEWIGVINPGNNDTTYNEMFKAKTTLTADKSSNTAYMQLSSLTSDDSAVYFCARRSPYFDYWGQGTTLTVSS VL: SIVMTQTPKFLLVSAGDRVTITCKASQSVSNDVAWYQQKPGQSPKLLIYYASNRYTGVPDRFTGSGYGTDFTFTISTVQAEDLAVYFCHQDYSSPTFGGGTKLEIK
fold over parental (CHO WT) (fold): 1
